Values compiled from PubChem BioAssay AID1159580.

Measurement Description: chemical genetic growth profiling, strain panel (AID 1159580);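 further: tested at 20 µM; growth read once vehicle control cultures reached saturation at 30 °C; 1 = growth at the plate median or of vehicle wells; lower values mean less growth of the strain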
Particulars: S. cerevisiae deletion strains, growth OD, locus YDL101C, strain DUN1
Screen size: about 5,500 compounds; about 2,000 (36%) were called active. Not shown: some 18% with an inconclusive outcome. No stated cut-off is given here; in the data, active means normalized growth mostly below about 0.91 (no sharp cut-off); inconclusive means no clear call, values can overlap the other calls; inactive means mostly above about 0.92. The list shows a part of the results.
Classes used: active, inactive

>>> label_value("CCOC(=O)c1ccc(NC(=O)CCC(=O)O)cc1")
"inactive"
>>> label_value("O=C(O)c1cccnc1")
"inactive"
>>> label_value("N#CC(c1ccccc1)N1CCCCC1 (stereo not drawn)")
"inactive"
>>> label_value("CC(C)=CCCC(C)[C@@H]1CC[C@]2(C)C3=C(CC[C@@]12C)C1(C)CC[C@H](O)C(C)(C)C1CC3 (stereo partly drawn)")
"inactive"
>>> label_value("C(=C(c1ccccc1)c1ccccc1)N1CCC1")
"inactive"
>>> label_value("CC(=O)O[C@H]1CCC2(C)C3=C(CCC2C1(C)C)[C@@]1(C)CC[C@@H](C(C)CCC=C(C)C)[C@]1(C)CC3 (stereo partly drawn)")
"inactive"
>>> label_value("CSc1sc(C#N)c2c1C(O)CCC2 (stereo not drawn)")
"inactive"
>>> label_value("CC(C)=CCCC(C)C1CC[C@@]2(C)C3=C(CC[C@]12C)C1(C)CC[C@H](O)C(C)(C)C1CC3 (stereo partly drawn)")
"inactive"
>>> label_value("CN(C)CCCN1c2ccccc2Sc2ccc(Cl)cc21")
"inactive"
>>> label_value("O=C(NOC(=O)c1ccccc1)c1ccccc1")
"active"
>>> label_value("O=C(O)C1C2CCC1C(O)C2 (stereo not drawn)")
"inactive"
>>> label_value("OC[C@H]1O[C@@H](O[C@@H]2[C@@H](CO)O[C@](O)(CO)[C@H]2O)[C@H](O)[C@@H](O)[C@H]1O")
"inactive"
>>> label_value("CCCN(CCC)S(=O)(=O)c1ccc(C(=O)O)cc1")
"inactive"
>>> label_value("O=C(O)c1ccc(S(=O)(=O)N(Cl)Cl)cc1")
"inactive"
>>> label_value("Cc1onc(-c2c(F)cccc2Cl)c1/C(N)=N\\OC(=O)c1ccc(C(C)(C)C)cc1")
"inactive"
>>> label_value("CS(=O)(=O)Nc1ccc([N+](=O)[O-])cc1Oc1ccccc1")
"inactive"
>>> label_value("CNCCCC12CCC(c3ccccc31)c1ccccc12")
"inactive"
>>> label_value("Cc1ccc(-n2cccc2)c(NS(=O)(=O)c2ccc(-c3ccno3)s2)c1")
"inactive"
>>> label_value("NCCCCCCNS(=O)(=O)c1cccc2c(Cl)cccc12")
"inactive"
>>> label_value("FC(F)(F)c1cc(-c2noc(C3CCc4ccccc4O3)n2)cc(C(F)(F)F)c1 (stereo not drawn)")
"inactive"
>>> label_value("Nc1ccc(S(=O)(=O)NC(=O)c2ccccc2)cc1")
"inactive"
>>> label_value("COc1c(Br)cc(/C(N)=N\\OC(=O)c2c(-c3c(Cl)cccc3Cl)noc2C)cc1Br")
"inactive"
>>> label_value("Cc1onc(-c2c(Cl)cccc2Cl)c1C(=O)O/N=C(/N)Cc1ccc(C(C)(C)C)cc1")
"inactive"

###

Measurement Description: chemical genetic growth profiling, strain panel (AID 1159580);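 further: tested at 20 µM; growth read once vehicle control cultures reached saturation at 30 °C; 1 = growth at the plate median or of vehicle wells; lower values mean less growth of the strain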
Particulars: S. cerevisiae deletion strains, growth OD, locus YBR021W, strain FUR4, hits give low values
About 2,000 (36%) of roughly 5,500 compounds were called active. Roughly 18% stayed inconclusive and do not appear here. The list shows a part of the results.
# normalized growth listing for each entry below
Measured Endpoint: normalized growth

>>> result("COC(=O)/C(=C1\\OC(=O)C(c2ccccc2)=C1O)c1ccccc1")
"0.963 (inactive)"
>>> result("CC12CCC(=O)C=C1CCC1C2[C@@H](O)CC2(C)C1CC[C@]2(O)C(=O)COP(=O)(O)O (some centres not stated)")
"1.02 (inactive)"
>>> result("CN[C@@H]1[C@H](O)[C@H](NC)[C@H]2O[C@@]3(O)C(=O)C[C@@H](C)O[C@H]3O[C@@H]2[C@H]1O")
"0.997 (inactive)"
>>> result("CNCCCC12CCC(c3ccccc31)c1ccccc12")
"0.948 (inactive)"
>>> result("CCCc1c(OCCCCc2nn[nH]n2)ccc(C(C)=O)c1O")
"1.03 (inactive)"
>>> result("CN(C)CCCN1c2ccccc2CCc2ccccc21")
"0.997 (inactive)"
>>> result("C/C1=C\\CC(C)(C)/C=C/CC2(C)OC2CC1 (configuration not stated)")
"1.02 (inactive)"
>>> result("CC1(C)CC2C1CC[C@]1(CBr)CCC3C(CC(=O)O)C(=O)O[C@@]32C1 (some centres not stated)")
"1.01 (inactive)"
>>> result("CC(=O)c1cc(CC=C(C)C)c(O)c(CC=C(C)C)c1")
"1.42 [resistant] (active)"
>>> result("Cc1ccc2c(c1)C1(C)CCCC(C)(C(=O)O)C1CC2 (configuration not stated)")
"1.04 (inactive)"
>>> result("CCN(CC)CCOC(=O)C1(C2CCCCC2)CCCCC1")
"0.862 (inactive)"
>>> result("CC(=O)O[C@@H]1C=C[C@@]2(C)C(C[C@@H](OC(C)=O)[C@@]3(C)C4=CC(=O)O[C@@H](c5ccoc5)[C@]4(C)CCC23)C1(C)C (some centres not stated)")
"1.03 (inactive)"
>>> result("C/C1=C/CC(C)(C)/C=C/C/C(C)=C/CC1")
"0.95 (inactive)"
>>> result("CN(C)C(=O)Oc1cccc([N+](C)(C)C)c1")
"0.992 (inactive)"
>>> result("CC(C)c1ccc2c(c1)CCC1C(C)(C(N)=O)CCCC21C (configuration not stated)")
"1.02 (inactive)"
>>> result("CC(=O)OCC(=O)[C@@]1(O)[C@H](C)CC2C3CCC4=CC(=O)C=C[C@]4(C)[C@@]3(F)[C@@H](O)C[C@@]21C (some centres not stated)")
"0.995 (inactive)"
>>> result("Nc1ccc(C(=O)O)cc1")
"1.01 (inactive)"
>>> result("CCN(CC)CCOC(=O)C(c1ccccc1)C1CCCCC1 (configuration not stated)")
"1 (inactive)"
>>> result("CC(C)=CCc1c2c(c3occ(-c4ccc(O)cc4)c(=O)c3c1O)C=CC(C)(C)O2")
"0.913 (inactive)"
>>> result("CC(=O)c1ccc(O)c(CC=C(C)C)c1")
"0.954 (inactive)"
>>> result("CN(C)CCCN1c2ccccc2Sc2ccc(C(F)(F)F)cc21")
"1.04 (inactive)"
>>> result("CN(C)CCCN1c2ccccc2CCc2ccc(Cl)cc21")
"0.561 (active)"

###

Measurement Description: chemical genetic growth profiling, strain panel (AID 1159580);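 further: tested at 20 µM; growth read once vehicle control cultures reached saturation at 30 °C; 1 = growth at the plate median or of vehicle wells; lower values mean less growth of the strain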
Particulars: S. cerevisiae deletion strains, growth OD, locus YNR049C, strain mso1, hits give low values
In all, about 5,500 compounds went through this assay and about 2,000 (36%) were called active. Inconclusive results (about 18%) are left out. The list shows a part of the results.
# normalized growth listing for each entry below
Measured Endpoint: normalized growth

>>> number("N=C(N)N")
0.991
>>> number("COC(=O)c1c(OC)cc2c(c1C)Oc1c(Cl)c(O)c(Cl)c(C)c1C(=O)O2")
0.994
>>> number("CCCc1cc(=O)[nH]c(=S)[nH]1")
1.01
>>> number("CCCOc1ccc2nc(NC(=O)OC)[nH]c2c1")
1.01
>>> number("Cc1cc(=O)[nH]c(=S)[nH]1")
0.978
>>> number("CCN(CC)CCOC(=O)C1(C2CCCCC2)CCCCC1")
0.979
>>> number("CCN(CC)CCOCCOC(=O)C1(c2ccccc2)CCCC1")
0.989

###

Measurement Description: chemical genetic growth profiling, strain panel (AID 1159580);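 further: tested at 20 µM; growth read once vehicle control cultures reached saturation at 30 °C; 1 = growth at the plate median or of vehicle wells; lower values mean less growth of the strain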
Particulars: S. cerevisiae deletion strains, growth OD, locus YHR027C, strain rpn1, hits give low values
The campaign covered roughly 5,500 compounds. About 2,000 (36%) were called active. About 18% were inconclusive and are not listed. This is one part of the list.
Measured Endpoint: normalized growth

>>> number("CN(C)CCCN1c2ccccc2Sc2ccccc21")
0.989
>>> number("CC(C)CCCC(C)C1CCC2C3C[C@@H](O)[C@@]4(O)C[C@@H](O)CC[C@]4(C)C3CC[C@]12C (stereo partly specified)")
0.991
>>> number("CC(C)CCCC(C)[C@H]1CCC2C3CC=C4CC(=O)CC[C@]4(C)C3CC[C@@]21C (stereo partly specified)")
0.987
>>> number("NC(Cn1ccc(=O)c(O)c1)C(=O)O (stereo unspecified)")
1.02
>>> number("CS(=O)(=O)Nc1ccc([N+](=O)[O-])cc1Oc1ccccc1")
0.995
>>> number("CN(C)C(=O)Oc1cccc([N+](C)(C)C)c1")
0.99
>>> number("CC12CCC(=O)C=C1CCC1C2[C@@H](O)CC2(C)C1CC[C@]2(O)C(=O)COP(=O)(O)O (stereo partly specified)")
0.994
>>> number("CN(C)CCCN1c2ccccc2CCc2ccccc21")
1.01
>>> number("COc1ccc(C2Sc3ccccc3N(CCN(C)C)C(=O)C2OC(C)=O)cc1 (stereo unspecified)")
0.977
>>> number("CC(C)CCCC(C)C1CCC2C3=CC[C@H]4C[C@@H](O)CC[C@]4(C)C3CC[C@@]21C (stereo partly specified)")
0.973
>>> number("CC(C)CCCC(C)[C@H]1CCC2C3C(=O)C=C4C[C@@H](O)CC[C@]4(C)C3CC[C@@]21C (stereo partly specified)")
0.992
>>> number("Cc1cn[nH]c1")
1.03
>>> number("CN(C)CCCN1c2ccccc2Sc2ccc(C(F)(F)F)cc21")
1.01
>>> number("CC(=O)OCC(=O)[C@@]1(O)[C@H](C)CC2C3CCC4=CC(=O)C=C[C@]4(C)[C@@]3(F)[C@@H](O)C[C@@]21C (stereo partly specified)")
0.982
>>> number("CC(=O)O[C@H]1CC[C@@]2(C)C(=CC(=O)C3C4CCC(C(C)CCCC(C)C)[C@@]4(C)CCC32)C1 (stereo partly specified)")
0.994
>>> number("CC(C)CCCC(C)C1CCC2C3CC(=O)[C@H]4C[C@@H](O)CC[C@]4(C)C3CC[C@]12C (stereo partly specified)")
1.01
>>> number("CC(C)NCC(O)COc1ccc(COCCOC(C)C)cc1 (stereo unspecified)")
0.999
>>> number("O=C1NC(O)=NC1(c1ccccc1)c1ccccc1")
1.01
>>> number("NS(=O)(=O)c1cc2c(cc1Cl)NC(CSCc1ccccc1)=NS2(=O)=O")
1.01
>>> number("CN(C)CCCN1c2ccccc2Sc2ccc(Cl)cc21")
0.082
>>> number("CC(C)CCCC(C)[C@H]1CCC2C3CC=C4C[C@@H](O)CC[C@]4(C)C3CC[C@@]21C (stereo partly specified)")
0.997
